# Test system: Neosartorya hiratsukae
# test_name: Antimicrobial activity against Neosartorya hiratsukae isolate CNM-CM-3303 obtained from skin of patient after 48 hrs by broth microdilution method
# Assay type: functional
# experimental_parameters: Aspergillus hiratsukae, isolate CNM-CM-3303, 48 h
reported_property: MIC

{"columns": ["molecule", "reading"],
 "data": [
  ["C[C@@H](c1ncncc1F)[C@](O)(Cn1cncn1)c1ccc(F)cc1F [VORICONAZOLE]", "0.5 µg/mL"],
  ["CCC(C)n1ncn(-c2ccc(N3CCN(c4ccc(OCC5COC(Cn6cncn6)(c6ccc(Cl)cc6Cl)O5)cc4)CC3)cc2)c1=O (stereo unspecified) [ITRACONAZOLE]", "0.12 µg/mL"],
  ["C[C@@H](c1nc(-c2ccc(C#N)cc2)cs1)[C@](O)(Cn1cncn1)c1ccc(F)cc1F [RAVUCONAZOLE]", "0.375 µg/mL"],
  ["CN(C/C=C/C#CC(C)(C)C)Cc1cccc2ccccc12 [TERBINAFINE]", "0.09 µg/mL"],
  ["C[C@@H]1[C@H](O)[C@@H](C)/C=C/C=C/C=C/C=C/C=C/C=C/C=C/[C@H](O[C@@H]2O[C@H](C)[C@@H](O)[C@H](N)[C@@H]2O)C[C@@H]2O[C@](O)(C[C@@H](O)C[C@@H](O)[C@H](O)CC[C@@H](O)C[C@@H](O)CC(=O)O[C@H]1C)C[C@H](O)[C@H]2C(=O)O [AMPHOTERICIN B]", "0.5 µg/mL"],
  ["CC[C@@H]([C@H](C)O)n1ncn(-c2ccc(N3CCN(c4ccc(OC[C@@H]5CO[C@@](Cn6cncn6)(c6ccc(F)cc6F)C5)cc4)CC3)cc2)c1=O [POSACONAZOLE]", "0.06 µg/mL"]
]}
